Reported IC50 values, AChE (Homo sapiens).

{"columns": ["SMILES_NOTATION", "TEST_TARGET", "IC50 / µM"],
 "data": [
  ["O=C(NCc1ccc[n+](Cc2ccccc2)c1)c1ccc(CN2C(=O)c3ccccc3C2=O)cc1.[Br-]", "AChE (Homo sapiens)", 9.71],
  ["O=C(NCc1ccc[n+](Cc2cccc(Cl)c2)c1)c1ccc(CN2C(=O)c3ccccc3C2=O)cc1", "AChE (Homo sapiens)", 2.66],
  ["O=C(NCc1ccc[n+](Cc2ccc([N+](=O)[O-])cc2)c1)c1ccc(CN2C(=O)c3ccccc3C2=O)cc1", "AChE (Homo sapiens)", 5.06],
  ["O=C(NCc1ccc[n+](Cc2ccc(F)cc2)c1)c1ccc(CN2C(=O)c3ccccc3C2=O)cc1", "AChE (Homo sapiens)", 11.1],
  ["O=C(NCc1ccc[n+](Cc2cccc(Br)c2)c1)c1ccc(CN2C(=O)c3ccccc3C2=O)cc1", "AChE (Homo sapiens)", 2.1],
  ["O=C(NCc1ccc[n+](Cc2ccccc2F)c1)c1ccc(CN2C(=O)c3ccccc3C2=O)cc1", "AChE (Homo sapiens)", 1.19]
]}
